System: B-16 melanoma cells
Experiment: Cell-survival rate (cytotoxicity) in B-16 melanoma cell culture
Assay type: cell-based
Settings: mouse, 100 ppm
Source text: The B-16 melanoma cell is one having an ability of producing melanin and therefore, the cells naturally grown by cell culture blacken. […] Accordingly, the whitening effect of each candidate substance can be evaluated on the basis of the degree of whiteness observed when adding a test sample relative to the degree of blackness observed for a control. […] Thus, the substantial whitening effect can be evaluated on the basis of the results of these cell-whitening test and cytotoxicity test. […]
Kindly return Fulfilled if reported Cell-Survival Rate is no lower than 70%; return Not fulfilled if it is lower.

Please review the entries below; each comes with its answer.
INSERT INTO results (molecule, class) VALUES
  ('CC1(C)CC[C@]2(CO)CC[C@]3(C)C(=CC[C@@H]4[C@@]5(C)CC[C@H](O)C(C)(C)[C@@H]5CC[C@]43C)[C@@H]2C1', 'Fulfilled'),
  ('C=C(C)[C@@H]1CC[C@]2(C(=O)O)CC[C@]3(C)[C@H](CC[C@@H]4[C@@]5(C)CC[C@H](O)C(C)(C)[C@@H]5CC[C@]43C)[C@@H]12', 'Not fulfilled');

Exam item: Could you tell me if the measured Cell-Survival Rate of O=c1cc(CO)occ1O [Kojic Acid, reference compound] reaches 70% or more?
Marked response: Fulfilled

These data points were gathered from patent US20030133958A1.
